TEST_NAME: Novel Modifiers of Survival Motor Neuron (SMN) Protein: Gene Identification via Genome-wide siRNA Screen;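 note: luminescence tracks full-length SMN protein made from the SMN2 reporter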
CONDITION_DESCRIPTION: HEK293T SMN2-luciferase reporter, siRNA knockdown, 72 h; actives lie on both sides
The whole screen tested about 31,000 sequences, of which about 1,400 (4.5%) were called active. Many of the other results were omitted from the sample, so actives are more common in it than they were.
Listed sequences paired with reported median seed-adjusted z-score
OBSERVATION_TYPE: median seed-adjusted z-score

[[record]]
query_sequence = "GGAGGAUCGUUUAGACAGATT against TCF12"
observation_type = "median seed-adjusted z-score"
endpoint_value = -0.16

[[record]]
query_sequence = "CCUUCAUAGUCAACAGCAATT against MGC16703"
observation_type = "median seed-adjusted z-score"
endpoint_value = 0.55

[[record]]
query_sequence = "AGCUGAAAAUUGAGAACAATT against TBX4"
observation_type = "median seed-adjusted z-score"
endpoint_value = 0.968

[[record]]
query_sequence = "GGACUAUGCAAAGAAUCUATT against RPS6KB1"
observation_type = "median seed-adjusted z-score"
endpoint_value = 1.4

[[record]]
query_sequence = "GCUUGUAGCUCUUAAGGUUTT against PPP2CA"
observation_type = "median seed-adjusted z-score"
endpoint_value = 0.731

[[record]]
query_sequence = "GCUCCAGUCUUUUCGCAAATT against DSG4"
observation_type = "median seed-adjusted z-score"
endpoint_value = -0.0211

[[record]]
query_sequence = "CGACAGUCUUGCUGAAAAATT against NOTO"
observation_type = "median seed-adjusted z-score"
endpoint_value = -0.193

[[record]]
query_sequence = "GGAUGCGUUGAAUAAGUUUTT against MGAT4A"
observation_type = "median seed-adjusted z-score"
endpoint_value = 0.134

[[record]]
query_sequence = "CUAAGGAAGUAGUUGAUUATT against HADHB"
observation_type = "median seed-adjusted z-score"
endpoint_value = -0.188

[[record]]
query_sequence = "GGCUCUUCAAGGCUAUGAATT against ANXA6"
observation_type = "median seed-adjusted z-score"
endpoint_value = -1.01

[[record]]
query_sequence = "GGGACAUUUCCAAAUGGAATT against ARL6IP5"
observation_type = "median seed-adjusted z-score"
endpoint_value = -0.202

[[record]]
query_sequence = "CUGUAGAUCUUUGUCAAAATT against DUS4L"
observation_type = "median seed-adjusted z-score"
endpoint_value = 0.525

[[record]]
query_sequence = "CCAUAUCGAAUAAUAAUGATT against SCRT1"
observation_type = "median seed-adjusted z-score"
endpoint_value = -0.483

[[record]]
query_sequence = "GCUUACUACACUUUUCUAATT against G6PC2"
observation_type = "median seed-adjusted z-score"
endpoint_value = -0.0362

[[record]]
query_sequence = "CCGUAUGUUUUGCUGCAAATT against ABCC4"
observation_type = "median seed-adjusted z-score"
endpoint_value = -1.66

[[record]]
query_sequence = "CCAAUAUUCGACUUGCGUATT against XPO1"
observation_type = "median seed-adjusted z-score"
endpoint_value = 1.12

[[record]]
query_sequence = "CAAUGUUUGUCUGGUCAUATT against ZDHHC2"
observation_type = "median seed-adjusted z-score"
endpoint_value = 0.133

[[record]]
query_sequence = "GAACCUACAUCAUCAGUAUTT against GJA1"
observation_type = "median seed-adjusted z-score"
endpoint_value = 0.348

[[record]]
query_sequence = "CUUUAUGACUUAGAGUUAATT against BAAT"
observation_type = "median seed-adjusted z-score"
endpoint_value = 0.641

[[record]]
query_sequence = "GCUUGACUUCAAAACUAAATT against SERPIND1"
observation_type = "median seed-adjusted z-score"
endpoint_value = 0.133

[[record]]
query_sequence = "GAGUGGACUGGGCAAAUCATT against 3-Sep"
observation_type = "median seed-adjusted z-score"
endpoint_value = 0.0683

[[record]]
query_sequence = "GGAUGAUGUACUUCUCUCATT against MLNR"
observation_type = "median seed-adjusted z-score"
endpoint_value = -0.038

[[record]]
query_sequence = "CCAGCUCCUUUAUCAAGCATT against RAD51"
observation_type = "median seed-adjusted z-score"
endpoint_value = 0.594

[[record]]
query_sequence = "GAUCAUCCCUUGUCUCUUUTT against CHRNA6"
observation_type = "median seed-adjusted z-score"
endpoint_value = 0.21

[[record]]
query_sequence = "GAGAUUCAUCGGUUCAAUATT against WRNIP1"
observation_type = "median seed-adjusted z-score"
endpoint_value = 0.00972


---

TEST_NAME: Novel Modifiers of Survival Motor Neuron (SMN) Protein: Gene Identification via Genome-wide siRNA Screen;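 note: luminescence tracks full-length SMN protein made from the SMN2 reporter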
CONDITION_DESCRIPTION: HEK293T SMN2-luciferase reporter, siRNA knockdown, 72 h; actives lie on both sides
Among all 31,000 sequences or so, about 1,400 (4.5%) were called active. Only a selection was taken, and actives are over-represented in it overall.
// bucketize median seed-adjusted z-score: b0 (below -0.3), b1 (-0.3 to below 0.2), b2 (0.2 or more)

[[record]]
query_sequence = "CUAUCACCUGGACUGUAUATT against RNF11"
label = "b0"

[[record]]
query_sequence = "GCACAACACUCGCUCCAAUTT against GLT8D1"
label = "b2"

[[record]]
query_sequence = "AGACUAUGAUAGAAUCCCATT against LGI3"
label = "b1"

[[record]]
query_sequence = "GCUCUGUGCUCUCUAGUGATT against LEFTY1"
label = "b2"

[[record]]
query_sequence = "GCAACAUCCUCAUUGUAUUTT against MCHR2"
label = "b0"

[[record]]
query_sequence = "GGAAUAUAAUAAGCGAAGATT against TAOK1"
label = "b1"

[[record]]
query_sequence = "CAACUCCGUGGUUACCAAATT against PQBP1"
label = "b0"

[[record]]
query_sequence = "GAAGAACUCGAUCAGCUAATT against MYH4"
label = "b0"

[[record]]
query_sequence = "GCGGAAAGGUGGACUUUGATT against CABP2"
label = "b2"

[[record]]
query_sequence = "CCUACUUCGGAGUCUAUGATT against SLC25A4"
label = "b0"

[[record]]
query_sequence = "GUGUCUCCAUAGUACGAGATT against ELP3"
label = "b2"

[[record]]
query_sequence = "CAGCAUACAUGUUUAGUGATT against TRPC6"
label = "b0"

[[record]]
query_sequence = "GGAAGAUCAUAGAAGUUGATT against SLC1A1"
label = "b1"

[[record]]
query_sequence = "GCCGAGGAACAAUCUCUCATT against RASGRP4"
label = "b1"

[[record]]
query_sequence = "AGAUCAACCCAGAUAACUATT against INCENP"
label = "b0"

[[record]]
query_sequence = "GGGAGAGUGUGCUACGAAATT against NEIL1"
label = "b1"

[[record]]
query_sequence = "GCUUCAGAGUCAACGGACATT against MICB"
label = "b1"

[[record]]
query_sequence = "CAUACGGACUGUACCUUUATT against PSMC5"
label = "b0"

[[record]]
query_sequence = "UCCCGGGAAUUAAAACUUATT against EPHA6"
label = "b1"

[[record]]
query_sequence = "GCUUUGUAGAAUUUGCAGATT against TRNAU1AP"
label = "b2"

[[record]]
query_sequence = "GGAGUACCAUAGAUACAGATT against PPIG"
label = "b1"

[[record]]
query_sequence = "CCUUCACACGUACCACAAATT against TEKT2"
label = "b0"

[[record]]
query_sequence = "CCAUCUAUGAGGCGGGAAATT against MFI2"
label = "b2"

[[record]]
query_sequence = "GAAUUAGAGUUGAGGGUAATT against MYBPC1"
label = "b2"

[[record]]
query_sequence = "GGGAGUAUAUUUUGAUGAATT against RARS2"
label = "b1"


---

TEST_NAME: Novel Modifiers of Survival Motor Neuron (SMN) Protein: Gene Identification via Genome-wide siRNA Screen;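 note: luminescence tracks full-length SMN protein made from the SMN2 reporter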
CONDITION_DESCRIPTION: HEK293T SMN2-luciferase reporter, siRNA knockdown, 72 h; actives lie on both sides
Method: Spinal muscular atrophy (SMA) is the most common neuromuscular autosomal recessive disorder and one of the leading genetic causes of infant death. […] Briefly, 1 pmol of each siRNA was spotted to a well of a 384-well plate (Corning, Corning, NY) and 20 microL of serum-free DMEM containing […] of Lipofectamine RNAiMax (Life Technologies, Carlsbad, CA) was then added to each well. […] Raw luminescence reads were normalized to Ambion(R) Silencer(R) Negative Control #2 siRNA, then log10 transformed. […]
Among all 31,000 sequences or so, about 1,400 (4.5%) were called active. The sample as a whole holds a higher share of actives than the screen did.
// boundary case: median seed-adjusted z-score equal to 0.1 maps to Condition not met; strictly smaller maps to Condition met

[[record]]
query_sequence = "GGCUUUGAGCAUAAGAUCATT against MAP3K10"
label = "Condition not met"

[[record]]
query_sequence = "GGUCAUAGCCUACUGUCUATT against SLC32A1"
label = "Condition met"

[[record]]
query_sequence = "GGAUAAUGAUCGCGAGGAATT against ALS2"
label = "Condition met"

[[record]]
query_sequence = "AUACAGAUGAUAAACCAUUTT against ZBTB34"
label = "Condition met"

[[record]]
query_sequence = "GUACUUACCUUGUGAGGCATT against VAV3"
label = "Condition met"

[[record]]
query_sequence = "GCACGUUUGAGUACGAAUATT against SFPQ"
label = "Condition met"

[[record]]
query_sequence = "GCCUGACUGUAACACCCAATT against TXN2"
label = "Condition not met"

[[record]]
query_sequence = "GUCUUAGAAUGUGAACGUATT against CCNL1"
label = "Condition met"

[[record]]
query_sequence = "CAGUUGCAUUGGUUCCCAUTT against EZH1"
label = "Condition not met"

[[record]]
query_sequence = "GGAAACCUCUGGACCUCUATT against ARID1A"
label = "Condition met"

[[record]]
query_sequence = "GUAUCAUGCCCAUCUGAAATT against ZMAT4"
label = "Condition met"

[[record]]
query_sequence = "GCUCGUUGGGACCAACUAATT against DYNC2H1"
label = "Condition met"

[[record]]
query_sequence = "CCAUCGUCAUGGAUCCAGATT against KDR"
label = "Condition met"

[[record]]
query_sequence = "GGAAGACUCAUUGAACAUATT against CASP1"
label = "Condition met"

[[record]]
query_sequence = "AGACCUCGAUUUCACAGUATT against PRMT8"
label = "Condition met"

[[record]]
query_sequence = "CAGUCGGAUCCAGAGCUGATT against GCHFR"
label = "Condition met"

[[record]]
query_sequence = "GUCUGUCGCUACUACAAUATT against SLCO2B1"
label = "Condition not met"

[[record]]
query_sequence = "CUAUAAAUGUAAACGAUGUTT against ZNF442"
label = "Condition not met"

[[record]]
query_sequence = "GCAGAUCUCGCUACAGGGATT against SFRS2B"
label = "Condition met"

[[record]]
query_sequence = "AGUCAAGAACAAUACCCAATT against SNRPD2"
label = "Condition met"

[[record]]
query_sequence = "GCUGGACCGUAAAAUUGAATT against PSMC4"
label = "Condition met"

[[record]]
query_sequence = "CUCAUUGAGUUGGACAAAUTT against RHOU"
label = "Condition met"

[[record]]
query_sequence = "GGAUAGGAGUCAUCAGCCUTT against SSTR3"
label = "Condition met"

[[record]]
query_sequence = "UCAUCUUCAUCGACCGGAATT against AGPAT1"
label = "Condition met"

[[record]]
query_sequence = "GGAUAAUAAGGAUCUAUUUTT against CPNE3"
label = "Condition not met"

[[record]]
query_sequence = "CUACCGUGCAAGUUCAUUATT against CD3D"
label = "Condition met"

[[record]]
query_sequence = "GGAGGGAUAUGUUCCACGUTT against TP53BP2"
label = "Condition not met"

[[record]]
query_sequence = "CAUCUUCAGUCUGUACAAATT against KIR2DL5B"
label = "Condition not met"

[[record]]
query_sequence = "CGGCCUAACUUUCAAGACATT against SDK2"
label = "Condition not met"

[[record]]
query_sequence = "AGACUGAACUCCGAACAGATT against SSH3"
label = "Condition met"

[[record]]
query_sequence = "ACAAUAAGCUGGACCUCUATT against TLR9"
label = "Condition met"

[[record]]
query_sequence = "CGGCUAGAAGAGGAACAGATT against LSG1"
label = "Condition not met"

[[record]]
query_sequence = "AGACCACCUUCAUCCGACATT against EHD1"
label = "Condition met"

[[record]]
query_sequence = "CCCUGAACAUACCUACUGATT against BRS3"
label = "Condition not met"

[[record]]
query_sequence = "CAGAUUUGGUAAAAGAGUATT against VPS26A"
label = "Condition met"

[[record]]
query_sequence = "GACGACCAAUUAUAGUUUATT against ZRANB1"
label = "Condition met"

[[record]]
query_sequence = "GACUCCUACAUGUCCAUUATT against DNM3"
label = "Condition met"

[[record]]
query_sequence = "GCCUAUAACAUGCAAACUUTT against HOXC5"
label = "Condition not met"

[[record]]
query_sequence = "CCGGGAAAUUGAUUAUGCATT against SIN3B"
label = "Condition not met"

[[record]]
query_sequence = "GGCCGUGGAUCAUCACUAUTT against FLJ16165"
label = "Condition met"

[[record]]
query_sequence = "GGCCGGAGAUUAUCCUCAATT against MIXL1"
label = "Condition met"

[[record]]
query_sequence = "CACUAGUUUUGUUAGCGAATT against ATP13A4"
label = "Condition met"

[[record]]
query_sequence = "AGAUGAUUCUAGAAUCCAATT against STK32B"
label = "Condition not met"

[[record]]
query_sequence = "CAAAGAUUCUGACUGAUGATT against GPATCH4"
label = "Condition met"

[[record]]
query_sequence = "GCACGUCACUGUGGUUGUATT against THNSL2"
label = "Condition met"

[[record]]
query_sequence = "GAUUGAUGGGUGUAAGAAATT against SMS"
label = "Condition not met"

[[record]]
query_sequence = "CACUGAUUUUGGAUGCUCUTT against HES1"
label = "Condition met"

[[record]]
query_sequence = "GAGAUGAACCGGAACAUCATT against LOC650864"
label = "Condition not met"

[[record]]
query_sequence = "GAACCGCUACAAGAACAUUTT against PTPN6"
label = "Condition met"

[[record]]
query_sequence = "GGCUGACAGUAGCUAAGCUTT against RAPGEF4"
label = "Condition met"


Hey, just so you know, these numbers are from PubChem BioAssay AID1347426.
